Reference for the values: the supplement of paper PMC12667976

B1: library; numbered along this chain (parent)
chain: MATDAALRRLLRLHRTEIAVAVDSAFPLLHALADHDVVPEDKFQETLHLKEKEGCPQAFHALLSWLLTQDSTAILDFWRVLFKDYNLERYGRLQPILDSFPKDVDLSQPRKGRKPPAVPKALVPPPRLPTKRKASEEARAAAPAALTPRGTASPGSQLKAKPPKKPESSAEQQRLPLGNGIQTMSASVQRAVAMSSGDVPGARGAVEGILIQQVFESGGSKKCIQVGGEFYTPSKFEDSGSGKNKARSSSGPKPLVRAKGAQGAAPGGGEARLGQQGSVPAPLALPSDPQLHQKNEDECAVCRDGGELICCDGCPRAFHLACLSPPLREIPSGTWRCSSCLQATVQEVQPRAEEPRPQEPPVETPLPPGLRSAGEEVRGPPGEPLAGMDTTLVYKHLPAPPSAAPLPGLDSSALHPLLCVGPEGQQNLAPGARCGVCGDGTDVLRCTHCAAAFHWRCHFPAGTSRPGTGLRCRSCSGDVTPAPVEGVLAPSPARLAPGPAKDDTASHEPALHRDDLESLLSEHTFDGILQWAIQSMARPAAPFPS

- Variants of: B1
- assayName: AIRE transcriptional activation functional score (insulin promoter-GFP; nonsense median 0, synonymous median 1) (normalised score); higher = higher AIRE activity (more reporter activation)
- studyConditions: with insulin promoter-GFP reporter in HEK293
For each entry below, report its AIRE transcriptional activation functional score value.
// no unit, no text: just the number

Sample T524V ; AIRE transcriptional activation functional score observed: 0.353

Sample L28E ; AIRE transcriptional activation functional score observed: -1.34

Sample A489K ; AIRE transcriptional activation functional score observed: 0.705

Sample K133H ; AIRE transcriptional activation functional score observed: 0.287

Sample D312T ; AIRE transcriptional activation functional score observed: 0.953

Sample C302Y ; AIRE transcriptional activation functional score observed: 0.467

Sample A540S ; AIRE transcriptional activation functional score observed: 0.988

Sample P384M ; AIRE transcriptional activation functional score observed: 1.35

Sample F236R ; AIRE transcriptional activation functional score observed: 0.401

Sample S239D ; AIRE transcriptional activation functional score observed: 0.131

Sample S153Q ; AIRE transcriptional activation functional score observed: 0.582
